assay: Tissue distribution, mouse; format: in vivo; details: kidney, dose 10 mg/kg, read-out: Kidney 0.5
measured.property: concentration at 0.5 h (ng/g)
Output spec: scalar in ng/g, unitless text.

Exercise: Entry under review: FC(F)(F)c1cc2c(NC3CCCc4ccccc43)ncnc2[nH]1 (stereo not shown) [Compound 15] . Reported concentration at 0.5 h?
Key: 1050

---

Recorded Toxicity (% positive for DAPI take-up at 50 μM)* values for a group of molecules are listed next.
tested on: HeLa MKYP cells; experiment: Toxicity / cell death measured by DAPI staining (take-up); assay type: cell-based; settings: Table 3 Supplement A; 50 μM
Output spec: scalar in %, unitless text.

Solved cases below.
Cc1nc2c(N[C@@H](C)c3ccccc3)ncnc2[nH]1 ... 31.93
c1coc(CNc2ncnc3[nH]c(C4CCC4)nc23)c1 ... 3.04
C[C@@H](Nc1ncnc2[nH]c(C(F)(F)F)cc12)c1ccccc1 ... 52.58

Exercise: Entry under review: "COc1cc(CNc2ncnc3[nH]c(C4CC4)nc23)ccn1" . Reported Toxicity (% positive for DAPI take-up at 50 μM)*?
Key: 7.06

Exercise: Entry under review: "Clc1cccc(CNc2ncnc3nc[nH]c23)c1" . Reported Toxicity (% positive for DAPI take-up at 50 μM)*?
Key: 12.54

Exercise: Entry under review: "CCCCNc1ncnc2[nH]c(C(F)(F)F)c(C)c12" . Reported Toxicity (% positive for DAPI take-up at 50 μM)*?
Key: 11.94

---

Recorded Toxicity (% positive for DAPI take-up at 50 μM)* values for a group of compounds are listed next.
Test system: HeLa MKYP cells
Experiment: Toxicity / cell death measured by DAPI staining (take-up)
Format: cell-based
Conditions: Table 3 Supplement A; 50 μM
Procedure: H2O2 treatment was performed as a control for cell death as measured by DAPI staining. Briefly, HeLa MKYP cells were plated at 10,000 cells/well in 96 well plates along with compounds at various concentrations. Following 16 hrs of incubation, cells were treated with 1 uM FCCP/oligomycin for 6 hours, then analyzed via FACS for the presence of mitochondria in lysosomes (as determined by an emissions spectrum shift from the pH-sensitive mtKeima tag).
Output spec: scalar in %, unitless text.

Solved cases below.
OC[C@@H](Nc1ncnc2[nH]c(C(F)(F)F)cc12)c1ccccc1 [Compound 77] ... 30.27
FC(F)(F)c1cc2c(N[C@H]3COc4ccccc43)ncnc2[nH]1 [Compound 39] ... 27.32
FC(F)(F)c1cc2c(N[C@H]3CCOc4ccccc43)ncnc2[nH]1 [Compound 42] ... 37.66
CN1CC[C@H](Nc2ncnc3[nH]c(C(F)(F)F)cc23)c2ccccc21 [Compound 80] ... 8.7
CN(C)C1CCC(CNc2ncnc3[nH]c(C(F)(F)F)cc23)CC1 (stereo not drawn) [Compound 50] ... 5.16

--- query ---
Exercise: Entry under review: CC(C)[C@@H](Nc1ncnc2[nH]c(C(F)(F)F)cc12)c1cncnc1 [Compound 26] . Reported Toxicity (% positive for DAPI take-up at 50 μM)*?
Key: 6.82

---

system: HeLa MKYP cells; experiment: Toxicity / cell death measured by DAPI staining (take-up); assay type: cell-based; conditions: Table 3 Supplement B; 25 uM compound, 1 uM FO
measured.property: Max cell death at 25 uM compound, 1 uM FO (%)
Output spec: scalar in %, unitless text.

FC(F)(F)c1cc2c(N[C@@H]3CCOc4ccccc43)ncnc2[nH]1 ... 21
O[C@@H]1Cc2ccccc2[C@H]1Nc1ncnc2[nH]c(C(F)(F)F)cc12 ... 7.59
OC[C@@H]1CCc2ccccc2[C@H]1Nc1ncnc2[nH]c(C(F)(F)F)cc12 ... 59.535
O[C@H]1Cc2ccccc2[C@H]1Nc1ncnc2[nH]c(C(F)(F)F)cc12 ... 21.2
CN1CC[C@H](Nc2ncnc3[nH]c(C(F)(F)F)cc23)c2ccccc21 ... 16

Exercise: Entry under review: "CN(C)[C@H]1CCc2ccccc2[C@@H]1Nc1ncnc2[nH]c(C(F)(F)F)cc12" . Reported Max cell death at 25 uM compound, 1 uM FO?
Key: 79.29

Exercise: Entry under review: FC(F)(F)c1cc2c(NC3CCCc4ccccc43)ncnc2[nH]1 (stereo not drawn) . Reported Max cell death at 25 uM compound, 1 uM FO?
Key: 10.7

Exercise: Entry under review: "c1ccc2c(c1)CCC[C@H]2Nc1ncnc2[nH]c(C3CC3)cc12" . Reported Max cell death at 25 uM compound, 1 uM FO?
Key: 14.9

Exercise: Entry under review: "O[C@@H]1Cc2ccccc2[C@@H]1Nc1ncnc2[nH]c(C(F)(F)F)cc12" . Reported Max cell death at 25 uM compound, 1 uM FO?
Key: 35.6
